# Tested on: Streptococcus pneumoniae ATCC 49619
test.readout: MIC (µg/mL)
Give bare numbers, in µg/mL.

COc1c(N2CCC(C)C(N)C2)ccc2c(=O)c(C(=O)O)cn(C3CC3F)c12 (stereo not shown) [Compound 1]: 0.031
CC[C@@H]1CCN(c2ccc3c(=O)c(C(=O)O)cn([C@@H]4C[C@@H]4F)c3c2OC)C[C@H]1N [Compound 2]: 0.031
Cc1c(N2CCC[C@H](N)C2)ccc2c(=O)c(C(=O)O)cn([C@@H]3C[C@@H]3F)c12 [Compound 9]: 0.031
COc1c(N2CC[C@H](N)[C@@H](F)C2)ccc2c(=O)c(C(=O)O)cn([C@@H]3C[C@@H]3F)c12 [Compound 14]: 0.125
C[C@H]1C[C@H](N)CN(c2ccc3c(=O)c(C(=O)O)cn([C@@H]4C[C@@H]4F)c3c2Cl)C1 [Compound 11]: 0.25
CC[C@@H]1CCN(c2ccc3c(=O)c(C(=O)O)cn([C@@H]4C[C@@H]4F)c3c2Cl)C[C@H]1N [Compound 8]: 0.008

In the following, a different compound is considered.
MIC for Cc1c(N2C[C@@H](C)C[C@H](N)C2)ccc2c(=O)c(C(=O)O)cn([C@@H]3C[C@@H]3F)c12 [Compound 12] ?
0.125

###

# Test system: Pseudomonas aeruginosa K2376
# procedure.text: MIC determination, microdilution method (CLSI)
# Format: cell-based
# cond: Pseudomonas aeruginosa, K2376; Gram(−); 24 h at 37° C.; read-out: MIC PaK2376
// classify: if (MIC < 4 µg/mL) 1 (yes) else 0 (no)

CC[C@@H]1CCN(c2ccc3c(=O)c(C(=O)O)cn([C@@H]4C[C@@H]4F)c3c2C)C[C@H]1N: 1 (yes)
NC1CCN(c2ccc3c(=O)c(C(=O)O)cn([C@@H]4C[C@@H]4F)c3c2Cl)CC1: 0 (no)
C[C@@H]1CCN(c2ccc3c(=O)c(C(=O)O)cn([C@@H]4C[C@@H]4F)c3c2Cl)C[C@H]1N: 1 (yes)
COc1c(N2CCC(C)C(N)C2)ccc2c(=O)c(C(=O)O)cn(C3CC3F)c12 (centres unmarked): 1 (yes)
CC[C@@H]1CCN(c2ccc3c(=O)c(C(=O)O)cn([C@@H]4C[C@@H]4F)c3c2OC)C[C@H]1N: 1 (yes)

Input CC[C@@H]1CCN(c2ccc3c(=O)c(C(=O)O)cn([C@@H]4C[C@@H]4F)c3c2Cl)C[C@H]1N ; condition: MIC strictly below 4 µg/mL. Does it hold?
1 (yes)

Now try COc1c(N2CC[C@H](N)[C@@H](F)C2)ccc2c(=O)c(C(=O)O)cn([C@@H]3C[C@@H]3F)c12 .
1 (yes)

Now try COc1c(N2C[C@@H](N)C[C@H](F)C2)ccc2c(=O)c(C(=O)O)cn([C@@H]3C[C@@H]3F)c12 .
0 (no)

Now try COc1c(N2CC[C@@H](F)[C@H](N)C2)ccc2c(=O)c(C(=O)O)cn([C@@H]3C[C@@H]3F)c12 .
0 (no)

Now try Cc1c(N2CCC[C@H](N)C2)ccc2c(=O)c(C(=O)O)cn([C@@H]3C[C@@H]3F)c12 .
1 (yes)

###

Quick record: MIC, Streptococcus pneumoniae ATCC 49619.
One number for each entry, in µg/mL.

Here's what some known entries look like.
COc1c(N2C[C@@H](N)C[C@H](F)C2)ccc2c(=O)c(C(=O)O)cn([C@@H]3C[C@@H]3F)c12 [Compound 13]: 0.031
CCC[C@@H]1CCN(c2ccc3c(=O)c(C(=O)O)cn([C@@H]4C[C@@H]4F)c3c2OC)C[C@H]1N [Compound 3]: 0.031
COc1c(N2CC[C@@H](F)[C@H](N)C2)ccc2c(=O)c(C(=O)O)cn([C@@H]3C[C@@H]3F)c12 [Compound 5]: 0.063
C[C@@H]1CCN(c2ccc3c(=O)c(C(=O)O)cn([C@@H]4C[C@@H]4F)c3c2Cl)C[C@H]1N [Compound 7]: 0.031
COc1c(N2CC[C@@H](C(F)(F)F)[C@H](N)C2)ccc2c(=O)c(C(=O)O)cn([C@@H]3C[C@@H]3F)c12 [Compound 4]: 0.031

Each compound below has a recorded value; state its MIC.
1. NC1CCN(c2ccc3c(=O)c(C(=O)O)cn([C@@H]4C[C@@H]4F)c3c2Cl)CC1 [Compound 15]
2. CC[C@@H]1CCN(c2ccc3c(=O)c(C(=O)O)cn([C@@H]4C[C@@H]4F)c3c2C)C[C@H]1N [Compound 10]

0.063
0.031
